So I've got a bunch of binders here, and I need their pKd values.
# measuredOn: T1, FLT3xCD3 TCE SEQ ID NO 93
# T1 construct: Single-chain scFv-scFv-scFc T cell engager; also called FLT3×CD3ε TCE; FLT3_7 A8xCD3-scFc Bispecific HLE molecule
# protocolText: KinExA equilibrium in solution, Table 5
Where no end group is shown, it is not given here. Side-chain parts run from the residue outwards. [ ]: non-standard residue; d: D form. pGlu = O=C1CC[C@@H](C(=O)O)N1; disulfide = not defined here; MAL = maleimide
Conceptually, pKd converts a concentration in mol/L into minus its log10.

q: // returns reported pKd for input [pGlu]DGNEEMGKGMEENGDQC([disulfide-4‑arm PEG 20 kDa]) (reading uncertain; also: four peptides on one 4-arm PEG, printed as pGlu-DGNEEMGKGMEENGDQC, also called CD3ε PepPOL, v2; Pep-PEG v2) [(pGlu-DGNEEMGKGMEENGDQC)4 -PEG(20 kDa)]
a: 9.75

q: // returns reported pKd for input QDGNEEMGQDGNEEMG [QDGNEEMG-QDGNEEMG]
a: 7.96

q: // returns reported pKd for input QDGNEEMGK [QDGNEEMG-K]
a: 7.65

q: // returns reported pKd for input [pGlu]DGNEELKGC (also called ID 14974) [pGlu-DGNEELKGC]
a: 9.85

q: // returns reported pKd for input QDGNEEMGKQDGNEEMG [QDGNEEMG-K-QDGNEEMG]
a: 8.09

q: // returns reported pKd for input QDGNEEMGKGMEENGDQC(4‑arm PEG 20 kDa) (also: four peptides on one 4-arm PEG, Peptide-PEG conjugate with four peptides on one PEG; also called CD3ε PepPOL, v1 (20 kDa); 4-arm 20 kDa PepPOL conjugate) [(QDGNEEMGKGMEENGDQC)4 -PEG(20 kDa)]
a: 7.66

q: // returns reported pKd for input [pGlu]DGNEELKGC([MAL-PEG 5 kDa]) (also: four peptides per PEG) [(pGlu-DGNEELKGC)4 -MAL PEG(5 kDa)]
a: 9.85

q: // returns reported pKd for input [pGlu]DGNEELKGC([MAL-PEG 10 kDa]) (also: four peptides per PEG) [(pGlu-DGNEELKGC)4 -MAL PEG(10 kDa)]
a: 9.85

q: // returns reported pKd for input QDGNEEMGGMEENGDQ (how the reversed half is joined is not explained) [QDGNEEMG-GMEENGDQ]
a: 8.01

q: // returns reported pKd for input [pGlu]DGNEEMGKGMEENGDQC (Position 1 is written E for pE) [pGlu-DGNEEMGKGMEENGDQC]
a: 9.75
